Recorded IC50, one value per entry.
# System: release of ApoB-100-associated lipoproteins from HepG2 cells
# TEST SUMMARY: Inhibition of the release of ApoB-100-associated lipoproteins from cultivated liver cells (HepG2), immunoassay for human LDL
# Format: cell-based
# RUN CONDITIONS: substance concentration at which light absorption (450 nm) is inhibited by 50% vs solvent control
MEASUREMENT TYPE: IC50 (nM)

[
  {
    "COMPOUND": "O=C(N[C@@H](CO)c1ccccc1)C(c1ccc(OCc2ccc3ccccc3n2)s1)C1CCCCCC1 (stereo partly shown)",
    "MEASUREMENT TYPE": "IC50",
    "READING UNIT": "nM",
    "LIMIT SIGN": "=",
    "RECORDED MEASUREMENT": 195
  },
  {
    "COMPOUND": "O=C(N[C@@H](CO)c1ccccc1)[C@H](c1ccc(OCc2ccc3ccccc3n2)cn1)C1CCCCCC1",
    "MEASUREMENT TYPE": "IC50",
    "READING UNIT": "nM",
    "LIMIT SIGN": "=",
    "RECORDED MEASUREMENT": 235
  },
  {
    "COMPOUND": "O=C(N[C@@H](CO)c1ccccc1)C(c1ccc(OCc2ccccc2Cl)cn1)C1CCCCCC1 (stereo partly shown)",
    "MEASUREMENT TYPE": "IC50",
    "READING UNIT": "nM",
    "LIMIT SIGN": "=",
    "RECORDED MEASUREMENT": 71
  },
  {
    "COMPOUND": "O=C(N[C@@H](CO)c1ccccc1)C(c1ccc(OCc2ccc3ccccc3n2)cn1)C1CCCC1 (stereo partly shown)",
    "MEASUREMENT TYPE": "IC50",
    "READING UNIT": "nM",
    "LIMIT SIGN": "=",
    "RECORDED MEASUREMENT": 622
  },
  {
    "COMPOUND": "O=C(N[C@@H](CO)c1ccccc1)[C@@H](c1ccc(OCc2ccc3ccccc3n2)cn1)C1CCCCCC1",
    "MEASUREMENT TYPE": "IC50",
    "READING UNIT": "nM",
    "LIMIT SIGN": "=",
    "RECORDED MEASUREMENT": 235
  },
  {
    "COMPOUND": "O=C(N[C@@H](CO)c1ccccc1)C(c1ccc2cc(OCc3ccc4ccccc4n3)ccc2c1)C1CCCC1 (stereo partly shown)",
    "MEASUREMENT TYPE": "IC50",
    "READING UNIT": "nM",
    "LIMIT SIGN": "=",
    "RECORDED MEASUREMENT": 1880
  },
  {
    "COMPOUND": "Cc1ccc(CNC(=O)C(c2ccc3cc(OCc4ccc5ccccc5n4)ccc3c2)C2CCCC2)cc1 (stereo not shown)",
    "MEASUREMENT TYPE": "IC50",
    "READING UNIT": "nM",
    "LIMIT SIGN": ">",
    "RECORDED MEASUREMENT": 2000
  },
  {
    "COMPOUND": "O=C(NCc1ccccc1)C(c1ccccc1)N1CCC(OCc2ccc3ccccc3n2)CC1 (stereo not shown)",
    "MEASUREMENT TYPE": "IC50",
    "READING UNIT": "nM",
    "LIMIT SIGN": ">",
    "RECORDED MEASUREMENT": 2000
  },
  {
    "COMPOUND": "O=C(NCc1ccccc1)C(c1ccc(OCc2ccccc2Cl)cn1)C1CCCCCC1 (stereo not shown)",
    "MEASUREMENT TYPE": "IC50",
    "READING UNIT": "nM",
    "LIMIT SIGN": "=",
    "RECORDED MEASUREMENT": 11
  },
  {
    "COMPOUND": "O=C(N[C@@H](CO)c1ccccc1)C(c1ccc(OCc2ccc3ccccc3n2)cn1)C1CCCCCC1 (stereo partly shown)",
    "MEASUREMENT TYPE": "IC50",
    "READING UNIT": "nM",
    "LIMIT SIGN": "=",
    "RECORDED MEASUREMENT": 255
  },
  {
    "COMPOUND": "O=C(N[C@H](CO)c1ccccc1)C(c1ccc2cc(OCc3ccc4ccccc4n3)ccc2c1)C1CCCC1 (stereo partly shown)",
    "MEASUREMENT TYPE": "IC50",
    "READING UNIT": "nM",
    "LIMIT SIGN": ">",
    "RECORDED MEASUREMENT": 2000
  },
  {
    "COMPOUND": "COc1cc(CNC(=O)C(c2ccc3cc(OCc4ccc5ccccc5n4)ccc3c2)C2CCCC2)ccc1O (stereo not shown)",
    "MEASUREMENT TYPE": "IC50",
    "READING UNIT": "nM",
    "LIMIT SIGN": ">",
    "RECORDED MEASUREMENT": 2000
  },
  {
    "COMPOUND": "O=C(NCC1CCCCC1)C(c1ccc2cc(OCc3ccc4ccccc4n3)ccc2c1)C1CCCC1 (stereo not shown)",
    "MEASUREMENT TYPE": "IC50",
    "READING UNIT": "nM",
    "LIMIT SIGN": ">",
    "RECORDED MEASUREMENT": 2000
  }
]
